Could you please report measured inhibition at 1 µM for the items listed next?
testedSystem: ACC (acetyl CoA carboxylase) purified from liver of male SD rat (Rattus norvegicus, UniProt P11497)
Construct: applied to a monomeric avidin sepharose column, and washed with buffer B. The ACC was eluted with buffer B containing 2 mM d-biotin; from tissue; host or cells: liver of male SD rat
assay: Measurement of ACC inhibition activity ([14C]-NaHCO3 incorporation)
Format: biochemical
conditionSet: ACC inhibition activity rate at 1 μM; Table 4-IV, Mode 4 benzenediamine compounds (numbers = x-IV); read-out: ACC Inhibition (%)
Only the number, expressed in %, is required.

[in] Supply measured inhibition at 1 µM of Cc1ccccc1S(=O)(=O)NC(=O)c1cccc(-c2nc(-c3ccc(N(C)CCC(C)C)c(NC(C)c4ccccc4)c3)no2)c1 (stereo not drawn) in your reply.
[out] 100

[in] Please look at this compound and report its inhibition at 1 µM: CC(C)CCN(C)c1ccc(-c2noc(-c3cccc(C(=O)NS(=O)(=O)c4ccccc4)c3)n2)cc1[N+](=O)[O-]
[out] 86

[in] Complete the entry with inhibition at 1 µM for CC(C)CCN(C)c1ccc(C(=O)NC(CC(=O)NS(=O)(=O)c2ccccc2)C2CCCCC2)cc1N(C)CC1CCCCC1 (stereo not drawn)
[out] 96

[in] Tell me inhibition at 1 µM reported for CC(C)CCN(C)c1ccc(C(=O)NC(CC(=O)NS(=O)(=O)c2ccccc2)C2CCCCC2)cc1N(C)Cc1ccccc1 (stereo not drawn)
[out] 84

[in] Indicate its recorded inhibition at 1 µM; the compound in question is Cc1ccccc1S(=O)(=O)NC(=O)CC(NC(=O)c1ccc(N(C)CCC(C)C)c(NCCc2ccccc2)c1)C1CCCCC1 (stereo not drawn)
[out] 98

[in] Name the recorded inhibition at 1 µM of the item Cc1ccccc1S(=O)(=O)NC(=O)CC(NC(=O)c1ccc(N(C)CCC(C)C)c(N(C)CCc2ccccc2)c1)C1CCCCC1 (stereo not drawn) in your answer.
[out] 86
